Attribution: patent US20260092093A1

Target: T1, hIL-18BP-hFc (human, UniProt O95998 31-194, limits assumed)
T1 sequence (looked up): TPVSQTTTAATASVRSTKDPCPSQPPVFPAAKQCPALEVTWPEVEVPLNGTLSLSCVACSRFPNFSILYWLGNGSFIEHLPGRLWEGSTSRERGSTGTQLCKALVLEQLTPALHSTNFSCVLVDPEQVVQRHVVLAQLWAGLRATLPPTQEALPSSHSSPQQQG
Test: cell-based or functional assay
experimental_endpoint: EC50 Fold Change (+BP/-BP), hIL-18 reporter assay (fold)
# output: bare number, implied unit fold

In the examples that follow, each entry is paired with its recorded EC50 Fold Change (+BP/-BP), hIL-18 reporter assay.
IL-18 variant polypeptide M18 (ligand) YFPKLRSKLSVIRNLNDQVLFIDQGNRPLFEDMTDSDCRDNAPRTIFIISMYKSSRRRGMAVTISVKCEKISTLSCENKIISFKEMNPPDGIKDTKSDIIFFQSSVPGHDNKMQFESSSYEGYFLACEKERDLFKLILKKEDELGDRSIMFTVQNED | 0.97
IL-18 variant polypeptide M28 (ligand) YFPKLASKLSVIRNLNDQVLFIDQGNRPLFEDMTDSDCRDNAPRTIFIISMYKWSGGRGMAVTISVKCEKISTLSCENKIISFKEMNPPDVIKDTKSDIIFFQYSVPGHDNKMQFESSSYEGYFLACEKERDLFKLILKKEDELGDRSIMFTVQNED | 2.33
IL-18 variant polypeptide M22 (ligand) YFPKLRSKLSVIRNLNDQVLFIDQGNRPLFEDMTDSDCRDNAPRTIFIISMYKYSRGRGMAVTISVKCEKISTLSCENKIISFKEMNPPDKIKDTKSDIIFFQSSVPGHDNKMQFESSSYEGYFLACEKERDLFKLILKKEDELGDRSIMFTVQNED | 1.04

(Q) Which measured EC50 Fold Change (+BP/-BP), hIL-18 reporter assay value corresponds to IL-18 variant polypeptide M38 (ligand) YFPKLSSKLSVIRNLNDQVLFIDQGNRPLFEDMTDSDCRDNAPRTIFIISMYKWSGARGMAVTISVKCEKISTLSCENKIISFKEMNPPDVIKDTKSDIIFFQISVPGHDNKMQFESSSYEGYFLACEKERDLFKLILKKEDELGDRSIMFTVQNED ?
(A) 2.11

(Q) Which measured EC50 Fold Change (+BP/-BP), hIL-18 reporter assay value corresponds to IL-18 variant polypeptide WM8 (ligand) YFPKLRSKLSVIRNLNDQVLFIDQGNRPLFEDMTDSDCRDNAPRTIFIISMYKDSQPRGMAVTISVKCEKISTLSCENKIISFKEMNPPDSIKDTKSDIIFFQRSVPGHDNKMQFESSSYEGYFLACEKERDLFKLILKKEDELGDRSIMFTVQNED ?
(A) 0.74
